Source listed as paper PMC5540273.

Overview of reported %Inh across a group of compounds:
tested on: MKNK1; details: concentration: 1 μM, replicates: in singlicate; n = 1
Please provide the amount together with its unit, number first.

* O=C(CCO)NCCn1ccc2ncnc(Nc3ccc(Oc4cccc(C(F)(F)F)c4)c(Cl)c3)c21 | 0%
* O=c1cc(N2CCOCC2)nc2n(Cc3cccc(Cl)c3)ccn12 | 0%
* CSc1nn2c(=O)cc(N3CCOCC3)nc2n1Cc1cccc(Cl)c1Cl | 20%

Q: State its %Inh: `C[C@H]1CC[C@@H](C(=O)Nc2ccccc2)CN1c1cc(-c2ccc3c(N)n[nH]c3c2)nc(N)n1`
Result: 0%

----------
tested on: ZAP70; settings: concentration: 1 μM, replicates: in singlicate; n = 1
QUANTITY: %Inh (%)
Form entry: value (%) — number only.

Illustrative cases are given below, each with its answer.
• COc1ccc(Nc2nccc(N3CCC(NC(=O)Nc4ccc5c(c4)OCO5)C3)n2)cc1 (stereo not drawn) = 0
• COc1cc2ncnc(Nc3ccc(OCc4ccccc4Br)c(Cl)c3)c2cc1OC.Cl = 19
• COc1cc2c(Nc3cccc(NC(=O)c4ccccc4)c3)ncnc2cc1OCCCN1CCOCC1 = 0
• Cl.Fc1ccccc1COc1ccc(Nc2ncnc3ccc(-c4nnc(C(F)(F)F)o4)cc23)cc1Cl = 0
• O=c1cc(N2CCOCC2)nc2n(Cc3cccc(Cl)c3)ccn12 = 0
• Nc1nc(-c2ccccn2)c(-c2ccnc3ccccc23)s1 = 4

Q: Given O=C(Nc1ccccc1F)NC1CCN(c2ccnc(Nc3ccc(F)cc3)n2)C1 (stereo not drawn) , respond with its %Inh.
Result: 0

Q: Quickly give me recorded %Inh for `Fc1cccc(COc2ccc(Nc3ncnc4sc(-c5ccc[nH]5)cc34)cc2Cl)c1`
Result: 6

Q: Identify measured %Inh associated with `Nc1n[nH]c2nnc(-c3ccccc3)cc12`
Result: 0

----------
test system: PIP5K2C; construct: gene PIP4K2C;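 also: kd values determined as follow-up on hits from a single-replicate KINOMEscan panel screen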
QUANTITY: Kd (nM)
The response must be a number in nM with no trailing unit.

See these solved cases before continuing.
* O=C(c1ccc(-c2cc(-c3c[nH]nc3-c3ccccn3)ccn2)cc1)N1CCCC1 [GW792479] | 21
* CNc1nccc(-c2c(-c3ccc(F)cc3)ncn2C2CCN(C)CC2)n1 [SB-222903] | 39
* CCc1nc(-c2cccc(C)c2)c(-c2ccnc(NC(=O)c3ccccc3)c2)s1 | 4100

Q: Supply measured Kd of CN1CCC(n2cnc(-c3ccc(F)cc3)c2-c2ccnc(NC3CCNCC3)n2)CC1 [SB-229482] in your reply.
Result: 220

----------
test system: MARK4; conditions: concentration: 1 μM, replicates: in singlicate; n = 1
# %Inh annotations
The reply should be a number in %, with the unit left off.

// below: answered compounds
• NC(=O)c1sc(-n2cnc3ccccc32)cc1OCc1ccccc1F = 1
• Cc1ccc(C)c(NC(=O)NCCNc2ccnc(Nc3ccc(F)cc3)n2)c1 = 9
• Fc1ccc(-c2ncn(CCCNCc3ccccc3)c2-c2ccncc2)cc1 = 0
• CCc1nc(-c2cccc(C)c2)c(-c2ccnc(NC(=O)c3ccccc3)c2)s1 = 28
• CC(C)(C)OC(=O)NC1CCCN(c2cc(-c3ccc4c(N)n[nH]c4c3)nc(N)n2)C1 (stereo not drawn) = 0

Q: State %Inh on MARK4. Entry: `C[C@H]1CC[C@@H](C(=O)Nc2ccccc2)CN1c1cc(-c2ccc3c(N)n[nH]c3c2)nc(N)n1`
Result: 0

Q: For MARK4, give %Inh of the listed compound: `CN1CCC(n2cnc(-c3ccc(F)cc3)c2-c2ccnc(NC3CCNCC3)n2)CC1`
Result: 6

Q: Under MARK4: report %Inh of `COc1ccc(NC(=O)c2ccc(-c3cc(-c4nnc(C)o4)ccc3C)cc2)cc1` .
Result: 0
